- SUBJECT OF TEST: Bile salt export pump (Homo sapiens)
- Sequence (O95342 whole entry): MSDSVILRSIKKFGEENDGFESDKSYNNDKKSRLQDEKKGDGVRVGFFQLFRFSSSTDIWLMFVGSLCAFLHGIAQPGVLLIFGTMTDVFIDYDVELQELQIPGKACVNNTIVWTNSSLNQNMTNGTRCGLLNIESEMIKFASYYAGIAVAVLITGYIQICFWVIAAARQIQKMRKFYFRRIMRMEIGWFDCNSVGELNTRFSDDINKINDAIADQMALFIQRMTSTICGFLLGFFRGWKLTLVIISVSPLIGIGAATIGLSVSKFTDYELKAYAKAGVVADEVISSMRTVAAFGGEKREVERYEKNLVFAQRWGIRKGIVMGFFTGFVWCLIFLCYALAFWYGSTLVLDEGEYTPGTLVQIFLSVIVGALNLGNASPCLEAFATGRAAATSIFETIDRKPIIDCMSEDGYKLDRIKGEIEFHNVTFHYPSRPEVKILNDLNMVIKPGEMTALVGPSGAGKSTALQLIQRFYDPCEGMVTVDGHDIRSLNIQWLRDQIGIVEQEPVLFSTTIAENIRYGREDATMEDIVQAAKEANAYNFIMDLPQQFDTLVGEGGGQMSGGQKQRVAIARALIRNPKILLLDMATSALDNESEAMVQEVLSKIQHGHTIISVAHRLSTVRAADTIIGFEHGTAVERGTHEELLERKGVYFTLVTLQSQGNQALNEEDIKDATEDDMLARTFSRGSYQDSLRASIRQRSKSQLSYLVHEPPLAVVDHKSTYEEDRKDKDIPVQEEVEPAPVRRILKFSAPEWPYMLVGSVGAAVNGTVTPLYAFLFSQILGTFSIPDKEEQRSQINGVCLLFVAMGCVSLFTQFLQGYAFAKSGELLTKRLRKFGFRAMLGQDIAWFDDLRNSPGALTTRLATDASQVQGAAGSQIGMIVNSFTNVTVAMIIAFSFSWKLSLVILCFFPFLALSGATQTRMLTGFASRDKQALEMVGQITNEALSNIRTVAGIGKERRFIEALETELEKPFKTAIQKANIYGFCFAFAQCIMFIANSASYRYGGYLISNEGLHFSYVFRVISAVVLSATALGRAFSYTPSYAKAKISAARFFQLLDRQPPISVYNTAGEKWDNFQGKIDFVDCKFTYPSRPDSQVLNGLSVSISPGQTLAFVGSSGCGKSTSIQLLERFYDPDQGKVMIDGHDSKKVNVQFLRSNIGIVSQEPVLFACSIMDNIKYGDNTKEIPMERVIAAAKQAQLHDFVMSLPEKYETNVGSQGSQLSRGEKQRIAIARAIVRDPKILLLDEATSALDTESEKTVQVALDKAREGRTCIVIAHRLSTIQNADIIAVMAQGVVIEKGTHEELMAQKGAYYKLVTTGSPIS
- TEST DETAILS: Inhibition of human BSEP overexpressed in Sf9 cell membrane vesicles assessed as uptake of [3H]-taurocholate in presence of ATP measured after 15 to 20 mins by membrane vesicle transport assay
Where a name gives a salt, the structure may show the parent alone.
Listed here are compounds together with their documented IC50.

>  <COMPOUND>
C[C@@H](O)[C@H]1C(=O)N2C(C(=O)O)=C(S[C@@H]3CN[C@H](C(=O)Nc4cccc(C(=O)O)c4)C3)[C@H](C)[C@H]12

>  <IC50>
> 133 µM

$$$$
>  <COMPOUND>
COc1ccccc1Oc1c(NS(=O)(=O)c2ccc(C(C)(C)C)cc2)nc(-c2ncccn2)nc1OCCO

>  <IC50>
23 µM

$$$$
>  <COMPOUND>
CCN1CCN(C(=O)N[C@@H](C(=O)N[C@@H]2C(=O)N3[C@@H]2SC(C)(C)[C@@H]3C(=O)O)c2ccccc2)C(=O)C1=O [PIPERACILLIN SODIUM]

>  <IC50>
> 133 µM

$$$$
>  <COMPOUND>
CCOC(=O)C1=C(C)NC(C)=C(C(=O)OC)C1c1cccc([N+](=O)[O-])c1 (stereo not given)

>  <IC50>
22.5 µM

$$$$
>  <COMPOUND>
CC(C)=CCC1C(=O)N(c2ccccc2)N(c2ccccc2)C1=O

>  <IC50>
73.9 µM

$$$$
>  <COMPOUND>
CO/N=C1\CN(c2nc3c(cc2F)c(=O)c(C(=O)O)cn3C2CC2)CC1CN (stereo not given) [GEMIFLOXACIN MESYLATE]

>  <IC50>
> 133 µM

$$$$
>  <COMPOUND>
CCOC(=O)/C=C(C)/C=C/C=C(C)/C=C/c1c(C)cc(OC)c(C)c1C [ETRETINATE]

>  <IC50>
> 133 µM

$$$$
>  <COMPOUND>
NNC(=O)c1ccncc1

>  <IC50>
> 133 µM

$$$$
>  <COMPOUND>
CC[C@]1(O)C[C@@H]2CN(CCc3c([nH]c4ccccc34)[C@@](C(=O)OC)(c3cc4c(cc3OC)N(C)[C@H]3[C@@](O)(C(=O)OC)[C@H](OC(C)=O)[C@]5(CC)C=CCN6CC[C@]43[C@@H]65)C2)C1

>  <IC50>
> 133 µM

$$$$
>  <COMPOUND>
O=c1n(CCCN2CCN(c3cccc(Cl)c3)CC2)nc2ccccn12 [TRAZODONE]

>  <IC50>
> 133 µM

$$$$
>  <COMPOUND>
CCN(CC)CCNC(=O)c1cc(Cl)c(N)cc1OC [METOCLOPRAMIDE]

>  <IC50>
> 133 µM

$$$$
>  <COMPOUND>
CCCCNC(=O)c1ccc(Oc2ccc(CC(=O)O)cc2OC)c(NS(=O)(=O)c2ccc(Cl)cc2Cl)c1

>  <IC50>
11.5 µM

$$$$
>  <COMPOUND>
CC(/C=C1\SC(=S)N(CC(=O)O)C1=O)=C\c1ccccc1

>  <IC50>
36.8 µM

$$$$
>  <COMPOUND>
CC(C)(C)c1ccc(C(O)CCCN2CCC(C(O)(c3ccccc3)c3ccccc3)CC2)cc1 (stereo not given)

>  <IC50>
> 133 µM

$$$$
>  <COMPOUND>
CC[C@]1(O)C[C@H]2CN(CCc3c([nH]c4ccccc34)[C@@](C(=O)OC)(c3cc4c(cc3OC)N(C=O)[C@H]3[C@@](O)(C(=O)OC)[C@H](OC(C)=O)[C@]5(CC)C=CCN6CC[C@]43[C@@H]65)C2)C1 [VINCRISTINE SULFATE]

>  <IC50>
> 133 µM

$$$$

Values from ChEMBL document CHEMBL4028801
